observation_type: melting point

INSERT INTO results (compound, observation_type, test_result) VALUES
  ('O=C(Cl)c1ccncc1', 'melting point', '160 °C'),
  ('COC(=O)CNC(=O)[C@H](CSC(=O)c1ccccc1)NC(=O)CNC(=S)CC(=O)c1ccccc1', 'melting point', '181 to 183 °C'),
  ('Cc1nc(N2CCN(Cc3ccccn3)C2=O)sc1C(=O)NCc1cccnc1', 'melting point', '58 to 61 °C'),
  ('COc1ccccc1-n1c(=O)[nH]c2c(C(N)=O)nc(-c3cccc(N)c3)nc21', 'melting point', '284 to 285 °C'),
  ('COc1ccc(Sc2ncc(Cl)cn2)cc1', 'melting point', '75 °C'),
  ('O=c1[nH]c2cc(F)c(NCC3COc4ccccc4C3)cc2o1 (stereo not given)', 'melting point', '223 to 224 °C'),
  ('CCCCOc1ccc(S(=O)(=O)C2(C(=O)NO)CCN(Cc3ccc(OCCN4CCCCC4)cc3)CC2)cc1', 'melting point', '155 °C'),
  ('CC(CI)CCCC(C)C1CC=C2C3=C(CCC21C)C1(C)CCC(O)C(C)(C)C1CC3 (stereo not given)', 'melting point', '148 °C'),
  ('O=C(CNC(=O)c1ccc(F)c([N+](=O)[O-])c1)OCc1ccccc1', 'melting point', '84 to 86 °C'),
  ('CSc1ccc(CN2CCC(=O)C(C(c3ccccc3)c3ccccc3)C2)cc1 (stereo not given)', 'melting point', '126 to 128 °C'),
  ('COc1cc(-c2cc(=Nc3c(C)cc(C)cc3C)n(C)c(=O)n2C)ccc1O', 'melting point', '90 to 100 °C'),
  ('N#Cc1nn(-c2c(Cl)cc(C(F)(F)F)cc2Cl)c(N)c1-c1cccc([N+](=O)[O-])c1', 'melting point', '212 to 214 °C'),
  ('COc1nc2ncnc(NCC=C(C)C)c2[nH]1', 'melting point', '205 to 210 °C'),
  ('NC(=O)NNC(c1ccccc1)c1ccccc1', 'melting point', '182 to 184 °C'),
  ('CSc1nccc(-c2c3cccnc3n3c(NC(C)=O)nccc23)n1', 'melting point', '160 to 162 °C'),
  ('COCCOC(=O)c1cc(-n2c(OC)nc(C(F)(F)C(F)(F)F)cc2=O)c(F)cc1Cl', 'melting point', '92 to 94 °C'),
  ('CS(=O)(=O)N1CCN(c2ccc(NC(=O)c3ccccc3-c3ccc(C(F)(F)F)cc3)cc2)CC1', 'melting point', '254 to 256 °C'),
  ('COc1ccc(N2CCOCC2)c2sc(-c3nc4c([nH]3)CCN(C(=O)c3ccc(F)cc3)CC4)nc12', 'melting point', '205 to 207 °C'),
  ('O=C(CNc1ccccc1F)Nc1ccc(O)cc1', 'melting point', '143 to 146 °C'),
  ('CCN(CC)C(=O)n1ccc(Sc2c(C)cccc2Cl)n1', 'melting point', '57 to 58 °C');

----------
Recorded melting point by entry
observation_type: melting point (°C)

INSERT INTO measurements (compound, observation_type, test_result) VALUES
  ('O=C(O)CC(c1ccccc1)C(F)(F)F (stereo not given)', 'melting point', 72),
  ('Cn1cc(C[C@H]2NC(=O)[C@@H](CCC(=O)O)NC2=O)c2ccccc21', 'melting point', 228),
  ('CC1(c2ccccc2)CCC(=O)C=C1C(=O)O (racemic)', 'melting point', 206),
  ('Cc1ccc(-c2cc(OCC(=O)N3CCOCC3)c3c(Cl)cccc3n2)cc1', 'melting point', 170);
